biological target: mouse Mcl-1 with truncations of 151 amino acid residues at its N-terminus and 23 residues at its C-terminus (mouse) (UniProt P97287); assay: competition phage ELISA
Sequence (P97287 152-308): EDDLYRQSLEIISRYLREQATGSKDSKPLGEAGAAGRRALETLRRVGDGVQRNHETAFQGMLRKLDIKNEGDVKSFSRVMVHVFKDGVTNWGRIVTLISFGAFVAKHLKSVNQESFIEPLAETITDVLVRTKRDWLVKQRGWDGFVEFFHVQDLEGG
pIC50: −log10 of the molar value. FLAG = FLAG tag
property.name: pIC50

PSSAMGQVGRQLAIIGDDINRRYDSE [Bak BH3 T4A, phage-displayed] ... 7.85
ASSTMGQVGRQLAIIGDDINRRYDSE [Bak BH3 P1A, phage-displayed] ... 7.74
{FLAG}-RAELPPEFAAQLRKIGDKVYCAWSAP-{GGGT-g3(249-406)} [mNoxaA BH3 T22A, phage-displayed] ... 7.85
QEDIIRNIARHLAQVGDSMDRSIPAG [Bid BH3 P25A, phage-displayed] ... 7.06
